- System: MS2 coat protein
- protocol-notes: apparent KD of MS2 coat protein; designed switch direction (-1 OFF switch, 1 ON switch): -1; higher = weaker reporter binding
- particulars: Eterna round: R95; input ligand: microRNA oligo, concentration not stated
Each item that follows carries a reported apparent KD of MS2 coat protein.
Give just the numeric value; nM need not be written.

Some entries whose results are on file:
{"construct-sequence": "AAUAAGCGAGGAUAUACAUGAGGAUCACCCAUGUGGACCGGGUGUUCAGCAAAUAAAAGUAGAAGGCGCAAAAG [Tibiater] (puzzle: Exclusion 3)", "assay-target": "MS2 coat protein", "display-unit": "nM", "observed": 46.8}
{"construct-sequence": "UUUUGACAUGAGGAUCACCCAUGUGAGGAUAUGAUGCGAUCGUCGAAAGACGAUAGCAUCAGAAGGCACAUAUG [Fiskers Ex 1 - 9] (puzzle: Exclusion 1)", "assay-target": "MS2 coat protein", "display-unit": "nM", "observed": 125}

Request: Sample UAAUACAAGUAGAGAUUCUACAUGAGGAUCACCCAUGUGCUCGUCUUAUAAAGUACUAUCACGAAAGUGAUAGUACA [Mat - Sensor v3 - turn-off var 1 - Eli Mod - D97] (puzzle: Sensor v3, turn-off variant 1) — what was its apparent KD of MS2 coat protein?
Result: 322

Request: Sample UUUUUACGAGGAUAUCGUUUUUUUCACAUGAGGAUCACCCAUGUUGUUUAUGUUUCGUUGCGAGAAGGCGUUUGUU [JR_E5_Sub064] (puzzle: Exclusion 5) — what was its apparent KD of MS2 coat protein?
Result: 24.3
